This section presents molecules with their documented melting point values.

Some solved entries appear below for comparison.
molecule=O=C(c1cccs1)c1cnn2c(-c3cccc(NC(=O)C4CC4)c3)ccnc12 observed_measurement="191 to 192 °C"
molecule=O=C(O)C=CC=CCS(=O)(=O)c1ccccc1 observed_measurement="148 to 150 °C"
molecule=O=C(O)c1cc(F)c(F)c(Cl)c1F observed_measurement="109 to 111 °C"
molecule=CC[C@H](CCC(=O)OC(C)(C)C)C(=O)N[C@@H](Cc1ccccc1)C(=O)OC observed_measurement="120 to 121 °C"
molecule=COc1ccc(NC(=S)Nc2ccc(NNC=O)cc2)cc1 observed_measurement="198 to 200 °C"

// Input: O=c1[nH]c(=O)n2c3c(cccc13)CCC2CO (configuration not stated) . Output its melting point only.
205 to 207 °C

// Input: CC(C)N1CC(c2cc(CCc3ccccc3)ncn2)=C(O)C1=O . Output its melting point only.
156 to 159 °C

// Input: O=C(c1ccccc1)c1c[nH]c2cnccc12 . Output its melting point only.
218 to 220 °C

// Input: CCCCC(CC)COC(=O)CC(C(=O)OCC(CC)CCCC)S(=O)(=O)O (configuration not stated) . Output its melting point only.
70 °C

// Input: Cc1ccc(NC(=N)c2ccccc2)cc1NC(=O)/C=C/c1ccccc1C(F)(F)F . Output its melting point only.
220 to 222 °C

###

This section presents molecules with their documented melting point values.

Some solved entries appear below for comparison.
molecule=CNC(=O)CN1CCc2cc(Nc3ncc(Cl)c(Nc4ccccc4C(=O)NC)n3)c(OC)cc2CC1 observed_measurement="200 to 216 °C"
molecule="COC(=O)c1ccc(CNC(=O)C2Cc3ccccc3N2S(=O)(=O)c2ccc(-c3cccc(C(F)(F)F)c3)cc2)cc1 (stereo unspecified)" observed_measurement="70 °C"
molecule=CC(C)(C)c1ccc(C(=O)NP(N)(N)=O)cc1 observed_measurement="232 °C"
molecule=CC(C)S(=O)(=O)c1cc(OCCc2ccccn2)c2[nH]nc(Nc3nccs3)c2c1 observed_measurement="190 to 191 °C"
molecule=CCCCCCCCOc1ccc(-c2ncc(O)cn2)cc1 observed_measurement="131 to 132 °C"
molecule=COc1ccc(C(=O)c2cc(Br)c(OC)cc2OC)c(F)c1 observed_measurement="114 to 115 °C"
molecule=CCOC(=O)C1=C2c3[nH]c4ccc(Cl)cc4c3CCN2CCC1 observed_measurement="82 to 83 °C"
molecule="CCCOC(=O)C(C)NC(=O)C(CC(=O)O)NC(=O)C(C)N (stereo unspecified)" observed_measurement="223 to 225 °C"
molecule=CCCc1c2nc(C(=O)OCC)ccc2cc2c(=O)cc(C(=O)OCC)oc12 observed_measurement="168 to 171 °C"
molecule="Cc1cccc(NC(=O)NC2CN(C(=O)C3CCCCC3)c3ccccc3N(c3ccccc3)C2=O)c1 (stereo unspecified)" observed_measurement="165 to 168 °C"

# next molecule below
// Input: Cn1ccnc1Sc1ncc([N+](=O)[O-])n1C . Output its melting point only.
123 to 124 °C

###

This section presents compounds with their documented melting point values.

compound=CCOC(=O)c1ccc(C=C(C)c2cc3c(s2)C(C)(C)CCC3(C)C)cc1 observed_measurement="118 to 120 °C"
compound=Cc1cc(C)cc(NC(=O)Cc2ccc(OC3(C(=O)N[C@@H](C)C(=O)O)CCCC3)cc2)c1 observed_measurement="90 to 91 °C"
compound=CSc1nc(Cl)c(I)c(C(F)(F)F)n1 observed_measurement="55 to 56 °C"
compound="Cc1cncc(-c2ccc(OC3SCC(O)C(O)C3O)cn2)c1 (stereo unspecified)" observed_measurement="165 to 166 °C"
compound=COc1ccc2nc3ccc(C#N)cn3c(=O)c2c1 observed_measurement="284 to 285 °C"
compound=O=C(CBr)c1ccc(OCCO)cc1 observed_measurement="78 °C"
compound=O=CC(CC(=O)c1ccccc1)(c1ccccc1)c1ccccc1 observed_measurement="125 to 127 °C"
compound=CNC[C@@H](O)c1cnccn1 observed_measurement="78 to 81 °C"

// Input: Cc1ccc(S(=O)(=O)N(O)S(=O)(=O)c2ccc(C)cc2)cc1 . Output its melting point only.
125 to 126 °C

// Input: NC(=O)c1nn(-c2c(Cl)cc(C(F)(F)F)cc2Cl)c(N)c1S(=O)(=O)C(F)(F)F . Output its melting point only.
217 °C

// Input: CC(C(=O)Oc1ccc([N+](=O)[O-])cc1)c1ccccc1 (stereo unspecified) . Output its melting point only.
55 to 56.5 °C

// Input: CN(C)CCn1c(=O)c2cc(N)ccc2c2cnc3cc4c(cc3c21)OCO4 . Output its melting point only.
245 to 246 °C

// Input: COc1ccc(C(CN(C)C(=O)/C=C/c2cccnc2)=NO)cc1OC . Output its melting point only.
172 to 173 °C

// Input: N#CC1=C(C2CCCCC2)Nc2n[nH]cc2C1c1cccc(C#N)c1Br (stereo unspecified) . Output its melting point only.
193 °C

// Input: Cc1cc(-c2nc3ccc(N4CCOCC4)cc3c(=O)[nH]2)cc(C)c1OCCO . Output its melting point only.
280 to 281 °C

###

This section presents molecules with their documented melting point values.

Some solved entries appear below for comparison.
molecule=CCCCNc1c(C(=O)OCC)cnc(O)c1C(C)=O observed_measurement="134 to 136 °C"
molecule="NC(N)=Nc1nc(-c2cccc(CNC(=O)C3CCCNC3)n2)cs1 (stereo unspecified)" observed_measurement="227 to 228 °C"
molecule=CN1CCC(c2ccccc2)(c2ccccc2)CC1 observed_measurement="71 to 73 °C"
molecule=Cc1ccc(-c2ccc3c(c2)C=C(C(=O)Nc2ccc(CSCc4ccccc4)cc2)CCO3)cc1 observed_measurement="145 to 146 °C"

// Input: CC(C)c1ccc(O[C@@H](Cc2ccc(O)cc2)C(=O)N2C(=O)OC[C@@H]2Cc2ccccc2)cc1 . Output its melting point only.
142 to 143 °C

// Input: CCOC(=O)C(=O)C1COc2ccccc2C1=O (stereo unspecified) . Output its melting point only.
73 to 75 °C

// Input: CCNC(=O)c1c(Cl)cccc1N(C)C(C)(C)C . Output its melting point only.
106 to 108 °C

// Input: CC1Oc2cc(CN3CCN(c4ccncc4)CC3)ccc2NC1=O (stereo unspecified) . Output its melting point only.
130 to 134 °C

// Input: OC1(CCc2ccccc2)CCC2(CC1)OCCO2 . Output its melting point only.
109 to 110 °C

// Input: CC(C)c1cccc(C(C)C)c1NC(=O)NCC1(Nc2ccc(-c3ccccc3)cc2)CCCC1 . Output its melting point only.
198 °C

// Input: CCOc1ccccc1CS(N)(=O)=O . Output its melting point only.
92 to 93 °C

// Input: CN(C)c1ccnc2c(NC(=O)c3c(Cl)cccc3Cl)cccc12 . Output its melting point only.
215 to 216 °C

// Input: CCCCCCCCCCCCC(OC(C)=O)C1=CC(=O)OC1O (stereo unspecified) . Output its melting point only.
67 to 68 °C

// Input: CC(CC(=O)O)n1nnnc1S (stereo unspecified) . Output its melting point only.
169 to 172 °C

###

endpoint: melting point

compound=Cc1noc(C)c1S(=O)(=O)n1c(Br)nc(Br)c1Br observed_measurement="165 to 170 °C"
compound=COc1cc(CO)c(OC)c(C)c1C observed_measurement="71 to 72 °C"
compound=CC(C)N1CCN(Cc2ccc(Cl)nc2)C1=N[N+](=O)[O-] observed_measurement="138 to 142 °C"
compound=O=C(O)C(=O)c1ccc(OCCCCCCCCCCCCOc2ccccc2)cc1 observed_measurement="98 to 100 °C"
compound=O=C(CC1CCCC1)Nc1ccc2c(c1)C(=O)CCC2 observed_measurement="117 to 118 °C"
compound=CSc1ncc(OCc2cccnc2)c(=O)[nH]1 observed_measurement="186 to 187 °C"
compound="CC(C)(C)CCN1C(=O)C(NC(=O)Oc2ccccc2)C(=O)N(c2ccccc2)c2ccccc21 (stereo unspecified)" observed_measurement="170 to 172 °C"
compound=O=C(O)C(O)(c1ccc(F)cc1)c1ccc(F)cc1 observed_measurement="133 to 136 °C"
compound=O=C(O)c1csc(CO)c1 observed_measurement="149 °C"
compound=N#Cc1c(N2CCCCC2)cc(-c2ccc3ccccc3c2)c2c1C(=O)c1ccccc1-2 observed_measurement="182 to 184 °C"

# next compound below
// Input: CCCCCc1ccc(C(=O)Cc2cccc(C(=O)O)c2)cc1 . Output its melting point only.
109 to 111 °C

###

This section presents compounds with their documented melting point values.

Some solved entries appear below for comparison.
compound="CCCC1(CC(=O)O)OCCc2c1[nH]c1c(F)ccc(C(=O)N3CCOCC3)c21 (stereo not given)" observed_measurement="98 to 100 °C"
compound="CCN(CC)P(N)(=O)N(c1ccc(S(=O)(=O)c2ccccc2)cc1)c1ccc(S(=O)(=O)c2ccccc2)cc1 (stereo not given)" observed_measurement="115 to 130 °C"
compound=O=C(O)CCC(=O)c1ccc(-c2ccc(Cl)s2)cc1 observed_measurement="212 to 213 °C"
compound=CCN(Cc1cc(Br)ccc1OCc1ccccc1)c1ncc(C(=O)NS(=O)(=O)c2ccccc2)s1 observed_measurement="140 to 145 °C"
compound="O=C1C(I)=CC2COC1O2 (stereo not given)" observed_measurement="66 to 67 °C"
compound=CNC(=O)c1cccc(NC(=O)COc2cccc3ccccc23)c1 observed_measurement="194 °C"
compound="COc1cc(NC2=NCC(c3ccccc3)O2)ccc1-c1cnco1 (stereo not given)" observed_measurement="130 to 132 °C"
compound=CC(C)(C)OC(=O)COc1ccc(NC(=O)OCc2ccccc2)cc1 observed_measurement="109 to 110 °C"

// Input: NC(=O)c1c(N2CCN(Cc3ccccc3)CC2)nn2c(-c3cccc(C(F)(F)F)c3)ccnc12 . Output its melting point only.
252 to 254 °C

// Input: CC1Cc2cc3c(cc2C(c2ccc(N)cc2)=NN1)OCO3 (stereo not given) . Output its melting point only.
118 to 120 °C

// Input: Cc1c(Cc2cccc(C(F)(F)F)c2)sc2c(-c3cc(C(N)=O)ccn3)cccc12 . Output its melting point only.
193 to 194 °C

// Input: COc1cc(OC)c2c(=O)[nH]c(-c3cc(C)c(OCCN4C(=O)NC(c5ccccc5)C4=O)c(C)c3)nc2c1 (stereo not given) . Output its melting point only.
220 to 221 °C

// Input: COc1cccc(-n2c(-c3sc(NC(=O)c4ccccc4)nc3-c3ccccc3)nc3ccccc3c2=O)c1 . Output its melting point only.
195 to 196 °C
